# target: UniProt:P10635
# Sequence (P10635 whole entry): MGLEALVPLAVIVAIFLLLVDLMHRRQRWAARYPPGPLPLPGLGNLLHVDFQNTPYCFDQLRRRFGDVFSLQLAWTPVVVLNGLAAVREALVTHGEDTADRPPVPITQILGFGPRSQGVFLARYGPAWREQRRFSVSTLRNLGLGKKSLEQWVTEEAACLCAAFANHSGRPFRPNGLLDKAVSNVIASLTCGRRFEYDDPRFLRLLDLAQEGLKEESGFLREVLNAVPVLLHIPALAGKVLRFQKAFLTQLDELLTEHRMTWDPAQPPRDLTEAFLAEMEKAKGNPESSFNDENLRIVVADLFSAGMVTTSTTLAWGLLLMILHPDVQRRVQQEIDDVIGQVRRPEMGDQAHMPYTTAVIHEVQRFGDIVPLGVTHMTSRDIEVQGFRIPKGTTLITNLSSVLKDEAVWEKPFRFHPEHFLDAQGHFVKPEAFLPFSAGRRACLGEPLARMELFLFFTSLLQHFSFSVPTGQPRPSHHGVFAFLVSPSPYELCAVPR
# assay: Inhibition of human recombinant CYP2D6
endpoint.label: IC50 (nM)

[A] O=S(=O)(Cc1ccc2c(c1)CCNCC2)c1ccc(N2CCCCC2)nc1
[B] O=S(=O)(Cc1ccc2c(c1)CCNCC2)c1ccc(Nc2ccc(F)cc2)nc1
Problem: From the recorded data, which exceeds the other in IC50: A or B ? // caller expects the label of the chosen entry
Result: A
(A: 1100 nM, B: 300 nM)

====

# target: UniProt O43193
# assay: Agonist activity at human recombinant motilin receptor expressed in CHO cells by FLIPR assay
pEC50: −log10 of the molar value.
endpoint.label: pEC50

# smiles.str, pEC50
rows = [
    ("CCCCc1ccc(S(=O)(=O)Nc2ccc3c(c2)CCN(Cc2cncn2C)CC3)cc1", 5.50),
    ("O=S(=O)(Nc1ccc(N2CCOCC2)nc1)c1ccc2c(c1)CCNCC2", 5.60),
    ("CCCCc1ccc(S(=O)(=O)Nc2ccc3c(c2)CCN(Cc2cnc[nH]2)CC3)cc1", 8.10),
]

[a] O=S(=O)(Cc1ccc2c(c1)CCNCC2)c1ccc(-c2ccc(F)cc2)cc1
[b] CCCCc1ccc(S(=O)(=O)N(C)c2ccc3c(c2)CCNCC3)cc1
Problem: // which entry has the larger pEC50 value, a or b ? To answer, give the label that identifies your chosen option.
Result: a

[A] N#Cc1ccc(-c2ccc(S(=O)(=O)Cc3ccc4c(c3)CCNCC4)cn2)cc1
[B] Cc1ccc(S(=O)(=O)Nc2ccc3c(c2)CCN(Cc2ccn[nH]2)CC3)cc1Cl
[C] O=S(=O)(Nc1ccc2c(c1)CCN(Cc1cc[nH]n1)CC2)c1ccc(-c2ccccc2)cc1
Problem: Put these in order: smallest pEC50 first, largest last. Rank the items, then write their labels in that order.
Result: A, B, C

====

# target: Motilin receptor (Homo sapiens, UniProt O43193)
# Sequence (O43193 whole entry): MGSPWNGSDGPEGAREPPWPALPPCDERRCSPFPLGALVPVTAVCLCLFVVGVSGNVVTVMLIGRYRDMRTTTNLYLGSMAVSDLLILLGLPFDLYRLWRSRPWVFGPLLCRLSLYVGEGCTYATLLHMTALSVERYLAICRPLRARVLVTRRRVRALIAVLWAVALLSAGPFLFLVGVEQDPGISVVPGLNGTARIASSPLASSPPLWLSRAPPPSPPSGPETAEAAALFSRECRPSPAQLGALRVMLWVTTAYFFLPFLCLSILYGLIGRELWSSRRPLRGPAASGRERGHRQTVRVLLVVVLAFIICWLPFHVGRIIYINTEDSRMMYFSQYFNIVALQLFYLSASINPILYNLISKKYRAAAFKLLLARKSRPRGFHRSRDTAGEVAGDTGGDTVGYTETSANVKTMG
# assay: Agonist activity at human recombinant motilin receptor expressed in CHO cells by FLIPR assay
endpoint.label: EC50 (nM)

# smiles.str, target, unit.text, EC50
measured = [
    ("CC1(C)CCc2cc(S(=O)(=O)Nc3ccc4c(c3)CCN(Cc3cc[nH]n3)CC4)ccc2O1", "Motilin receptor (Homo sapiens, UniProt O43193)", "nM", 5.01),
]

[I] O=S(=O)(Nc1ccc2c(c1)CCN(Cc1cc[nH]n1)CC2)c1ccc(Cl)cc1
[II] CCCCc1ccc(S(=O)(=O)Nc2ccc3c(c2)CCNCC3)cc1
[III] CC(C)Oc1ccc(S(=O)(=O)Nc2ccc3c(c2)CCN(Cc2cc[nH]n2)CC3)cc1
[IV] CC(C)(C)c1ccc(S(=O)(=O)Cc2ccc3c(c2)CCNCC3)cc1
Problem: Order the items by recorded EC50; the first position goes to the largest value. Reply: labels, ordered per the request.
Result: IV, II, I, III
(IV: 3160 nM, II: 1580 nM, I: 794 nM, III: 3.98 nM)

====

Overview of recorded CL for various compounds
# Test system: Liver microsomes
# assay: Intrinsic clearance in human liver microsomes after 30 mins
# Type: ADME, Microsome
# measurement.parameters: 0.5 h

Past entries and their recorded results:
# smiles.str, CL
rows = [
    ("O=S(=O)(Cc1ccc2c(c1)CCNCC2)c1ccc(Nc2ccc(F)cc2)nc1", "< 1 mL/min/g"),
    ("O=S(=O)(Cc1ccc2c(c1)CCNCC2)c1ccc(N2CCOCC2)nc1", "< 0.5 mL/min/g"),
    ("O=S(=O)(Cc1ccc2c(c1)CCNCC2)c1ccc(-c2ccc(F)cc2)cc1", "< 1 mL/min/g"),
    ("O=S(=O)(Nc1ccc2c(c1)CCN(Cc1cc[nH]n1)CC2)c1ccc(N2CCOCC2)nc1", "6.6 mL/min/g"),
    ("O=S(=O)(Cc1ccc2c(c1)CCNCC2)c1ccc(-c2ccc(F)c(F)c2)cc1", "1 mL/min/g"),
]

Problem: Send back Liver microsomes CL of O=S(=O)(Cc1ccc2c(c1)CCNCC2)c1ccc(-c2ccc(F)cc2)nc1 only.
Result: < 1 mL/min/g

Problem: Using Liver microsomes as the test system, report measured CL of O=S(=O)(Cc1ccc2c(c1)CCNCC2)c1ccc(-c2ccc(Cl)cc2)nc1 .
Result: < 1 mL/min/g

Problem: Specify CL for O=S(=O)(Cc1ccc2c(c1)CCNCC2)c1ccc(-c2ccc(Cl)cc2)cc1 , system Liver microsomes.
Result: < 1 mL/min/g
